# measurement-target: 3-hydroxy-3-methylglutaryl-coenzyme A reductase (Homo sapiens)
# measurement-notes: Inhibitory constant against HMG-CoA reductase with alpha asarone
readout-name: Ki (µM)
Report as a plain number; the unit µM is understood.

Q: I'd like to know its Ki. The compound in question is CC(C)c1nc(N(C)S(C)(=O)=O)nc(-c2ccc(F)cc2)c1/C=C/[C@@H](O)C[C@@H](O)CC(=O)O [ROSUVASTATIN]
A: 71

---

Measured Ki values are reported for all entries that follow.
# measurement-target: 3-hydroxy-3-methylglutaryl-coenzyme A reductase (Homo sapiens, UniProt P04035)
# Sequence (P04035 whole entry): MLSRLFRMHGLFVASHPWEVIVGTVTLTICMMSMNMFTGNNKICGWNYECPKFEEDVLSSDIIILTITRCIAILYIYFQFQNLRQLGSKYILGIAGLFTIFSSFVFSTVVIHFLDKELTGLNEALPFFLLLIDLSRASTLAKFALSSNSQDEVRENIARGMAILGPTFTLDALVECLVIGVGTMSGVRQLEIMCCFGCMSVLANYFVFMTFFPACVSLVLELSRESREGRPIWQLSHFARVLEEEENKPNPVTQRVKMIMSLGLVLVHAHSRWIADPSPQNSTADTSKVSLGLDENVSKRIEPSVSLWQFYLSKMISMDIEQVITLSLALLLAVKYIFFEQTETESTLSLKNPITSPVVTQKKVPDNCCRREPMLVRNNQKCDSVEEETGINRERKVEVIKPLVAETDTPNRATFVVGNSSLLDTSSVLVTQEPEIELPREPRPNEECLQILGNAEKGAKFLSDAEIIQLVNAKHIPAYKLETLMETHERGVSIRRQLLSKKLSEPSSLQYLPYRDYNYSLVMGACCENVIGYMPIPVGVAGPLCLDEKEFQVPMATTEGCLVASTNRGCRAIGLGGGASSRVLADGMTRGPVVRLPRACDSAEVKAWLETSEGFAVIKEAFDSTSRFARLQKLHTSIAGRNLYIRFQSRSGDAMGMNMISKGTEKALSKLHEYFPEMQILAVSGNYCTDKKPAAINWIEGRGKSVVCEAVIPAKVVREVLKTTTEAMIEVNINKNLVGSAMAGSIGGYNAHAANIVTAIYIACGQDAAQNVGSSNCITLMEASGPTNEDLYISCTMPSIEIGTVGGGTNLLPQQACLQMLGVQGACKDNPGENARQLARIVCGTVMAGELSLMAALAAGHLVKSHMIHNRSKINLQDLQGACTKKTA
# measurement-notes: Inhibitory constant against HMG-CoA reductase

>>> print(df.to_string())
             smiles_code  meas_value
0  CC(O)(CC(=O)O)CC(=O)O     23.5 nM

Switching to the query record.
Q: Could you tell me which Ki is on file for `CC(C)c1nc(N(C)S(C)(=O)=O)nc(-c2ccc(F)cc2)c1/C=C/[C@@H](O)C[C@@H](O)CC(=O)O` ?
A: 0.9 nM
